# assayed target: T1, Transportin 3 (TNPO3), full-length wild type (human, UniProt Q9Y5L0 1-923)
# T1 chain: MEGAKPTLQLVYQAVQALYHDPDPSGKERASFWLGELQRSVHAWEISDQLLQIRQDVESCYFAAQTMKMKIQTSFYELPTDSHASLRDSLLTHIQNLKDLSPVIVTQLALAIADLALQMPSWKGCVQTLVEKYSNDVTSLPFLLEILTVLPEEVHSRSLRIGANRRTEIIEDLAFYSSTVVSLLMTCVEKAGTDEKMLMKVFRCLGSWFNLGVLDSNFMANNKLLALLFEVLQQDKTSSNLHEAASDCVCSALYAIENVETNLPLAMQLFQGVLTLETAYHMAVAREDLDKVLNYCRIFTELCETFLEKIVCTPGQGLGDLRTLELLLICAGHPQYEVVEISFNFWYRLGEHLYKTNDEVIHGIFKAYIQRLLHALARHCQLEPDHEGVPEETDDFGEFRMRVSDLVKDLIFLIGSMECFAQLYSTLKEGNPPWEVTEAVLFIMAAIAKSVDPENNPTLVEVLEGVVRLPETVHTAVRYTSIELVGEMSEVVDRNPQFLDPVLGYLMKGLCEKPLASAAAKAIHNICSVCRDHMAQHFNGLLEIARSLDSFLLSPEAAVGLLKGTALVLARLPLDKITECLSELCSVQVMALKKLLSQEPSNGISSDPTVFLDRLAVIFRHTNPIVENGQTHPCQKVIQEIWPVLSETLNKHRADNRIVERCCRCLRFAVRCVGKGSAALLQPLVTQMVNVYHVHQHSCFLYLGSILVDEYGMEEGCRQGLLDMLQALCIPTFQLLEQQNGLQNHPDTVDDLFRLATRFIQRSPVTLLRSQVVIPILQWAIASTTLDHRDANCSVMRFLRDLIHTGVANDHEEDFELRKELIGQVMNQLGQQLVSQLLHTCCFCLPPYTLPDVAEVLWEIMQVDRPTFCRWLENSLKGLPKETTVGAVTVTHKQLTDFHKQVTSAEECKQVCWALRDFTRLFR
# assay details: ITC
pKd: −log10 of the molar value.
reported endpoint: pKd

[
  {
    "binder": "SRDYYSSRSQSGGYSDRSSGGSYRDSYDSYATHNE (domain or fragment, human, UniProt Q14011 138-172, looked up, Only residues 158-171 were modelled in PDB 8CMK; also called CIRBP^RSY; RSY-NLS; source: E. coli BL21-(DE3) Star, purified (denaturing lysis, Ni-NTA, TEV cleavage, second Ni-NTA, SEC Superdex 30); not shown: His6, N-terminal, cleaved; protein A, N-terminal, cleaved) [RSY region of cold-inducible RNA-binding protein (CIRBP), residues 138-172]",
    "observed": 6.06
  }
]
